Values were extracted from ChEMBL document CHEMBL1201862.

molecular target: Caspase-6 (Homo sapiens); experiment: human caspase-6 inhibitors, dose response, biochemical, VEID-R110 fluorescence, cherry-pick (AID 720632)
Sequence (P55212 24-179 limits assumed): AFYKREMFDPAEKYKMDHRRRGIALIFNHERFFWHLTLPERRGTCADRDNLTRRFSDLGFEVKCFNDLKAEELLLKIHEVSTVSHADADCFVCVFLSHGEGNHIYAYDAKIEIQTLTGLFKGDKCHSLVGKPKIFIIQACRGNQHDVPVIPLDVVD
Sequence (P55212 194-293 limits assumed): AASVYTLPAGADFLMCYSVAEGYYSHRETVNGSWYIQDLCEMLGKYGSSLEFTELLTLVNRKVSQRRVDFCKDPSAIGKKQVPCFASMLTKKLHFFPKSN
Structures can show the parent of a compound that is named as a salt. The source made the active and inactive calls. No rule for the calls is given here.
# key: entry, value: AC50

Worked examples, 3 compounds total:
compound: CN1CCc2cc3c(c4c2C1Cc1ccccc1-4)OCO3 (centres undefined) [ROEMERINE]
AC50: 3.68 µM (active)
--
compound: COc1ccc(Cc2nccc3cc(OC)c(OC)cc23)cc1OC [PAPAVERINE HYDROCHLORIDE]
AC50: 22 µM (active)
--
compound: COCCN(C(=O)COC(=O)c1cc2c(s1)CCC2)c1c(N)n(Cc2ccccc2)c(=O)[nH]c1=O
AC50: 0.198 µM (active)

Moving on to the next compound.
Query: Recorded AC50 of Cc1[nH]cnc1CN1CCc2c(c3ccccc3n2C)C1=O [ALOSETRON HYDROCHLORIDE] , please.
Response: 11.5 µM (active)
